Assay: In vitro enzyme assay to detect hydrolysis of chlorophenol red-beta-D-[…] directly proportional to the number of Toxoplasma stably expressing beta-galactosidase
Format: functional, organism-based, Toxoplasma gondii
Set-up: scale not given: in the data most compounds retested in dose-response had high values
Details: 50 µM
Hit rate of the full screen: of about 85,000 compounds, about 440 (0.52%) showed an effect of 50% or more. The list comes from a sample in which strong results are over-represented; it also holds close analogues and randomly drawn compounds.
Readout name: Percent Effect (%)
Just the number in %, nothing appended.

Examples with answers:
>  <Compound>
NC(=O)CCSc1nnc(N2CCCC2)n1C1CC1

>  <Percent Effect (%)>
10.69

$$$$
>  <Compound>
NCc1ccnc(OCC2CC2)c1

>  <Percent Effect (%)>
3.263

$$$$

Query: Report Percent Effect for `Cc1noc(C)c1S(=O)(=O)N(C)Cc1ccoc1` please.
Response: -13.17

Query: Report Percent Effect for `NC(=O)[C@@H]1Cc2ccccc2CO1` please.
Response: 9.404

Query: Report Percent Effect for `CN(C)c1ccc(NC(=O)N2CCSCC2)cn1` please.
Response: -21.27

Query: Report Percent Effect for `NC(=O)c1ccccc1COC(=O)c1ccsc1` please.
Response: 4.513

Query: Report Percent Effect for COC(=O)c1ccc(CN2CCCC(CO)C2)cc1 (centres undefined) please.
Response: -14.35

Data provenance: ChEMBL document CHEMBL3988442
